TARGET SYSTEM: JAK2 (recombinant purified GST-tagged catalytic domain) (Homo sapiens (Human))
MEASUREMENT NOTES: Jak Biochemical HTRF Assay (JAK2)
MEASUREMENT CONDITIONS: [ATP] 8.5 μM
OUTCOME MEASURE: IC50 (nM)

COMPOUND: N#CCC1(n2nc(Nc3ccc(Cl)cc3)c3c(=O)[nH]ccc32)CCC(O)CC1 (stereo not drawn) [Example 18-12]
IC50 [nM]: 38.5

A: COC(=O)N1CCC(CC#N)(n2nc(Nc3ccc(C(C)(O)C(F)(F)F)cc3)c3c(=O)[nH]ccc32)CC1 (single isomer, unassigned) [Example 5-142]
B: CC(C)(C)OC(=O)N1CCC(CC#N)(n2nc(Nc3ccc(S(=O)(=O)NC4CCCCC4)cc3)c3c(=O)[nH]ccc32)CC1 [Example 5-292]
Problem: Please state the entry with greater IC50 among A and B . Select an item and report its label.
Solution: B
(B: 1.92 nM, A: 0.33 nM)

----------
TARGET SYSTEM: JAK2 (recombinant purified GST-tagged catalytic domain) (Homo sapiens (Human), UniProt O60674)
Sequence (O60674 849-1124): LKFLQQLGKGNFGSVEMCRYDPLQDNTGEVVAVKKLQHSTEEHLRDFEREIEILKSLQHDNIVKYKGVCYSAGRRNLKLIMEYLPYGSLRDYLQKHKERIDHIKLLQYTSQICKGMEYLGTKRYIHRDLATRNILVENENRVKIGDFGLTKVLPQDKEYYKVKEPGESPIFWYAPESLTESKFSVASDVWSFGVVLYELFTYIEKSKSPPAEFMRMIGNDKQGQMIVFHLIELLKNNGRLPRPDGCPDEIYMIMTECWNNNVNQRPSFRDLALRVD
MEASUREMENT NOTES: Jak Biochemical HTRF Assay (JAK2)
MEASUREMENT CONDITIONS: [ATP] 8.5 μM
Protocol: Jak Biochemical HTRF Assay Protocol The ability of compounds to inhibit the activity of JAK1, JAK2, JAK3, and Tyk2 was measured using a recombinant purified GST-tagged catalytic domain for each enzyme (Invitrogen JAK1 #M4290, JAK2 #M4290, JAK3 #M4290, Tyk2 #M4290) in an HTRF format biochemical assay. […] Plates were shaken and centrifuged and then incubated 60 minutes at room temperature and then read on a Perkin Elmer Envision (λex=337 nm, λem=665 and 615 nm, TRF delay time=20 μs). […]
pIC50: −log10 of the molar value.
OUTCOME MEASURE: pIC50

Example results:
MOLECULE: CN(C)S(=O)(=O)c1ccc(Nc2nn(C3(CC#N)CCN(C(=O)CCC(F)(F)F)CC3)c3cc[nH]c(=O)c23)cc1
pIC50: 9.48

MOLECULE: Cc1cc(Nc2nn([C@]3(CC#N)CCCOC3)c3cc[nH]c(=O)c23)ccc1C(=O)N1CCC(O)(C(F)(F)F)C1 (single isomer, unassigned)
pIC50: 8.88

a: CN(C)C(c1ccc(Nc2nn([C@]3(CC#N)CC[C@@H](C(=O)OC(C)(C)C)OC3)c3cc[nH]c(=O)c23)cc1)C(F)(F)F (single isomer, unassigned) [Example 5-213]
b: CC(C)(C)S(=O)(=O)c1ccc(Nc2nn(C3(CC#N)CCCC3)c3cc[nH]c(=O)c23)cc1
Problem: Please state the entry with greater pIC50 among a and b . Select an item and report its label.
Solution: a
(a: 9.54, b: 9.32)

----------
TARGET SYSTEM: JAK2 (recombinant purified GST-tagged catalytic domain) (Homo sapiens (Human))
MEASUREMENT NOTES: Jak Biochemical HTRF Assay (JAK2)
MEASUREMENT CONDITIONS: [ATP] 8.5 μM
OUTCOME MEASURE: IC50 (nM)

1: CC(F)(F)C(=O)N1CCC(CC#N)(n2nc(Nc3ccc(S(=O)(=O)C(C)(C)C)cc3)c3c(=O)[nH]ccc32)CC1
2: CN1Cc2cc(Nc3nn(C4(CC#N)CCCCC4)c4cc[nH]c(=O)c34)ccc2S1(=O)=O
Problem: # query: argmin of IC50 over 1 and 2 Select an item and report its label.
Solution: 1
(1: 0.15 nM, 2: 3.73 nM)

Sourced from patent US9957264B2
